Just for reference, the RNAGym collection of RNA variant scans (doi:10.1093/molbev/msab373) is where these values come from.

Measured reverse-splicing fitness values are reported for all entries that follow.
B1: Azoarcus group I ribozyme (parent)
chain: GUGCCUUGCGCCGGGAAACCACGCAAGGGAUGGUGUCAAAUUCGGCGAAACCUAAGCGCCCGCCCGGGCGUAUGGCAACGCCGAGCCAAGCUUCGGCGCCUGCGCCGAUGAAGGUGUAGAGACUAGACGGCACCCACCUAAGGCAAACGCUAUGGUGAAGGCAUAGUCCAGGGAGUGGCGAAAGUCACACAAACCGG

variants of: B1; assay: reverse-splicing fitness (ratio to wild type); higher = more active; in vitro selection; Mg2+ level not given
The reply should be a number, written without any unit.

Solved entries (count: 5):
| VARIANT_DESIGNATION | ASSAY_METRIC | EXPERIMENTAL_VALUE |
| --- | --- | --- |
| C82G A111G A120U C169G U176A | reverse-splicing fitness | 0.00289 |
| C82U A111U A120U A145C C150U C169A U176A | reverse-splicing fitness | 0.00217 |
| A111U C150A C169U U176G | reverse-splicing fitness | 0.00721 |
| A111C A120G A145C C150G C169U U176G | reverse-splicing fitness | 0.004 |
| C82G A111G A120G A145G C169A U176A | reverse-splicing fitness | 0.0166 |

Quick one: reverse-splicing fitness for A111C A120C A145U C150A C169U ?
0.024

Another variant to look at: A111C A120C A145C C150G C169G U176A
0.00861
